# IC50 listing for each entry below
target: GPR3 (Homo sapiens, UniProt P46089); construct: expressed in transfected cells; host or cells: CHO cells; test: GPR3 antagonist functional cAMP assay (LANCE Ultra cAMP TR-FRET, CHO cells stably expressing GPR3); assay type: cell-based; conditions: CHO cells stably expressing GPR3, cAMP assay
Sequence (P46089 whole entry, species assumed): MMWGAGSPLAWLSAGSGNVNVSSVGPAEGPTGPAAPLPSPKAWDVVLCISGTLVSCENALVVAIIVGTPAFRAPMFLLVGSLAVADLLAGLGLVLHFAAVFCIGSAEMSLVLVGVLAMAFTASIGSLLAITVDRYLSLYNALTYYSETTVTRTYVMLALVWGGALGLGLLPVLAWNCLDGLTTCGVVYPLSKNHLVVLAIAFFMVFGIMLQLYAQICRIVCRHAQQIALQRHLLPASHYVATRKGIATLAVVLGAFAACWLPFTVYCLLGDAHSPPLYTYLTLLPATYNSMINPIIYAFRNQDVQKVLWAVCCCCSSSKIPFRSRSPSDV

Some solved cases for reference:
- Molecule: "CC(C)(O)C(O)c1cc2nc(-c3cnn(C4CC4)c3)c(N3CCC(Oc4ccc(F)cc4F)CC3)nc2cn1 (single isomer, unassigned) [Compound 590]"
  IC50: "100 to 1000 nM"
- Molecule: "CC(=O)N1CCc2nc(N3CCN(C(CO)(CO)c4cc(F)ccc4F)CC3)c(-c3cnn(C)c3)nc2C1 [Compound 551]"
  IC50: "≥ 30000 nM"

// query IC50 value for entry CCn1cc(-c2nc3c(nc2N2CCC(Oc4ccc(F)cc4F)CC2)CCN(C(=O)C(C)(O)CO)C3)cn1 (stereo not shown) [Compound 519] 1000 to 30000 nM

Can you check CC(C)(O)[C@@H](O)c1cc2nc(N3CCN(Cc4ccc(F)cc4F)CC3)c(-c3cnn(C4CC4)c3)nc2cn1 (single isomer, unassigned) [Compound 577] next? 1000 to 30000 nM
